Test system: Madurella mycetomatis MM55
Test: growth relative to untreated control; higher = less inhibition, active = 20 or less
Conditions: 100 µM
For each entry below, report its growth value.
One number for each entry, in %.

Illustrative cases are given below, each with its answer.
COMPOUND	growth / %
CCN(Cc1ccc(Cl)nc1)/C(=C/[N+](=O)[O-])NC	132
ClC1=C(Cl)[C@@]2(Cl)[C@H]3C[C@@H](Cl)[C@H](Cl)[C@H]3[C@@]1(Cl)C2(Cl)Cl	130

Give measured growth for every item shown.
1. O=C(NC(=O)c1ccccc1Cl)Nc1ccc(OC(F)(F)F)cc1
2. C/C=C(\C)C(=O)O[C@H]1C[C@@H](OC(C)=O)[C@@]2(C(=O)OC)CO[C@H]3[C@@H](O)[C@@](C)([C@]45O[C@@]4(C)[C@H]4C[C@@H]5O[C@@H]5OC=C[C@@]54O)[C@H]4[C@]1(CO[C@]4(O)C(=O)OC)[C@@H]32
3. CCC(CC)c1cccc(OC(=O)NC)c1.CCCC(C)c1cccc(OC(=O)NC)c1
4. CCc1nn(C)c(C(=O)NCc2ccc(Oc3ccc(C)cc3)cc2)c1Cl
5. COC(=O)N(C(=O)N1CO[C@@]2(C(=O)OC)Cc3cc(Cl)ccc3C2=N1)c1ccc(OC(F)(F)F)cc1
6. Clc1cc(Cl)cc(Nc2nc3cnc(NC4CCCC4)cc3n2C2CCNC2)c1 (stereo not given)
7. Clc1ccc(C(OCCN2CCCCC2)c2ccccc2)cc1 (stereo not given)
8. CC1(C)C(C=C(Cl)Cl)C1C(=O)OCc1cccc(Oc2ccccc2)c1 (stereo not given)

1: 112; 2: 106; 3: 147; 4: 120; 5: 115; 6: 6.79; 7: 4.6; 8: 151
